test_protocol: MTT assay, 3T3-L1 viability during differentiation with clozapine, risperidone, berberine (Example 2)
Assay type: cell-based, mouse
details: mouse, 3T3-L1 cells during differentiation induction; read-out: reduction of cell viability
measure: cytotoxicity at 8 days, 15 μM
Please make sure the unit comes right after the number.

Just so you know, measured cytotoxicity at 8 days, 15 μM for CN1CCN(C2=Nc3cc(Cl)ccc3Nc3ccccc32)CC1 [clozapine, reference compound] came out at 6.2%

----------
test_protocol: in vitro
details: mouse, 3T3-L1 cells during differentiation
measure: cytotoxicity at 4 days, 8 μM (%)
Your answer should be a plain number; it is taken to be in %.

Just so you know, measured cytotoxicity at 4 days, 8 μM for COc1ccc2cc3[n+](cc2c1OC)CCc1cc2c(cc1-3)OCO2.[Cl-] [berberine, Berberine (Chloride Form)] came out at 12.8

----------
test_protocol: in vitro
details: mouse, 3T3-L1 cells during differentiation
measure: cytotoxicity at 8 days, 8 μM
Please make sure the unit comes right after the number.

Just so you know, measured cytotoxicity at 8 days, 8 μM for COc1ccc2cc3[n+](cc2c1OC)CCc1cc2c(cc1-3)OCO2.[Cl-] [berberine, Berberine (Chloride Form)] came out at 11.4%
